- System: E. coli TESEC Alr+ wild-type control
- assay: growth (OD600 after 10 h); higher = more growth (less inhibition)
- condition.summary: compound 0.1 mM; raw OD600 reference: median of DMSO wells 0.241, cell-free background 0.041
Structures can show the parent of a compound that is named as a salt.
measure: growth
# output: bare number, no unit

compound: N=C(N)NCC1COC2(CCCCC2)O1 (stereo unspecified) [Guanadrel sulfate]
reported: 0.241

Request: Fill in: growth of Nc1nc(Cl)nc2c1ncn2[C@H]1C[C@H](O)[C@@H](CO)O1 is ___
Response: 0.263

Request: growth for OC(CCN1CCCCC1)(c1ccccc1)C1CC2C=CC1C2 (stereo unspecified) [Biperiden hydrochloride] ?
Response: 0.23

Request: growth for NCCc1c[nH]cn1 [Histamine dihydrochloride] ?
Response: 0.24

Request: Which growth is reported for this compound? COc1ccccc1N1CCN(CCCCNC(=O)c2ccc3ccccc3c2)CC1
Response: 0.149

Request: Please give the measured growth for this compound: COc1ccc2c(c1)c(CC(=O)OCC(=O)O)c(C)n2C(=O)c1ccc(Cl)cc1
Response: 0.154

Request: I'd like to know its growth. The compound in question is O=C(O)CCc1nc(-c2ccccc2)c(-c2ccccc2)o1
Response: 0.143

Request: I'd like to know its growth. The compound in question is C[C@H]1C[C@@H]2[C@H]([C@@H](O)C[C@@]3(C)[C@H]2CC[C@]3(O)C(=O)CO)[C@@]2(C)C=CC(=O)C=C12
Response: 0.202

Request: Entry under review: Cc1[nH]cnc1CN1CCc2c(c3ccccc3n2C)C1=O [Alosetron hydrochloride] . Reported growth?
Response: 0.197

Request: Fill in: growth of COc1c(N2C[C@@H]3CCCN[C@@H]3C2)c(F)cc2c(=O)c(C(=O)O)cn(C3CC3)c12 is ___
Response: 0.0423
